Target: T1, His10/Avi Human IL33-01 (human)
T1 construct: Wild type mature IL-33 with N-terminal 10xHis, Avitag and Factor Xa site; biotinylated by BirA on the Avitag where used biotinylated; reduced form unless treated; also called N-terminal His Avi IL-33; His-Avi human IL-33 wild type
T1 chain: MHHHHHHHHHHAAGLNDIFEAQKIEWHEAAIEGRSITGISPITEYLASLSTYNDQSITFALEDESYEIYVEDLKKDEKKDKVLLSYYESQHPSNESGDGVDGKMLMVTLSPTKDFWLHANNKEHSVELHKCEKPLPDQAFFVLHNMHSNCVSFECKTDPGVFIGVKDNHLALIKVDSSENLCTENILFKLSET
Experiment: HTRF epitope competition, IgG titrated; competitor DyLight labelled 33_640117 IgG; 1 hour
readout.label: pIC50
Recall that pIC50 is obtained by taking minus log10 of the concentration measured in molar.

Guide cases for pIC50, answers given:
For 33_640087-7 IgG1 (antibody, V domains shown, IgG1) VH: EVQLLESGGGLVQPGGSLRLSCAASGFTFSSYAMSWVRQAPGKGLEWVSGISAIDQSTYYADSVKGRFTISRDNSKNTLYLQMNSLRAEDTAVYYCARQKFMQLWGGGLRYPFGYWGQGTMVTVSS VL: SYVLTQPPSVSVSPGQTASITCSGEGMGDKYAAWYQQKPGQSPVLVIYRDTKRPSGIPERFSGSNSGNTATLTISGTQAMDEADYYCGVIQDNTGVFGGGTKVTVL , what is its reported pIC50?
10.00

Now try 33_640082-6 IgG1 (antibody, V domains shown, IgG1) VH: EVQLLESGGGLVQPGGSLRLSCAASGFTFSSYAMSWVRQAPGKGLEWVSGISGIDTSTYYADSVKGRFTISRDNSKNTLYLQMNSLRAEDTAVYYCARQKFMQLWGGGLRYPFGYWGQGTMVTVSS VL: SYVLTQPPSVSVSPGQTASITCSGERMGDKYAAWYQQKPGQSPVLVIYRDTKRPSGIPERFSGSNSGNTATLTISGTQAMDEADYYCGVLKQDTGVFGGGTKVTVL .
10.00

Shifting focus to the binder that follows.
For 33_640086-6 IgG1 (antibody, V domains shown, IgG1) VH: EVQLLESGGGLVQPGGSLRLSCAASGFTFSSYAMSWVRQAPGKGLEWVSGISGIDTSTYYADSVKGRFTISRDNSKNTLYLQMNSLRAEDTAVYYCARDKFMQLWGGGLRYPFGYWGQGTMVTVSS VL: SYVLTQPPSVSVSPGQTASITCSGERMGDKYAAWYQQKPGQSPVLVIYRDTKRPSGIPERFSGSNSGNTATLTISGTQAMDEADYYCEVKVKDTGVFGGGTKVTVL , what is its reported pIC50?
10.00

Entry source: patent US20200353078A1
